Origin of values: patent US5462935A

Quick reference for MIC among some compounds
System: Enterobacter cloacae ATCC 27508
Assay: minimal inhibitory concentration, two-fold agar dilution
Format: cell-based
Conditions: ATCC27508, Muller-Hinton agar, 37° C., 20 hours
Enter your answer as a number in µg/mL; do not include the unit.

# annotated cases, reported MIC shown
compound | unitAbbrev | MIC
C[C@H](O/N=C(\C(=O)NC1C(=O)N2C(C(=O)[O-])=C(CSc3nc(N)cc(N)[n+]3N)CS[C@H]12)c1csc(N)n1)C(=O)O (stereo partly drawn) | µg/mL | 0.016
C[C@H](O/N=C(\C(=O)NC1C(=O)N2C(C(=O)[O-])=C(CSc3nc(N)cc(N)[n+]3-c3ccccc3)CS[C@H]12)c1csc(N)n1)C(=O)O (stereo partly drawn) | µg/mL | 0.031
C[C@@H](O/N=C(\C(=O)NC1C(=O)N2C(C(=O)[O-])=C(CSc3nc(N)cc(N)[n+]3-c3ccccc3)CSC12)c1csc(N)n1)C(=O)O (stereo partly drawn) | µg/mL | 0.031

API: the following record is the query input.
Q. Answer with the recorded MIC for the compound listed here: CC(C)(O/N=C(\C(=O)N[C@@H]1C(=O)N2C(C(=O)[O-])=C(C[n+]3ccccc3)CS[C@H]12)c1csc(N)n1)C(=O)O [CTZ, Ceftazidime, reference compound]
A. 0.031

###

System: Citrobacter freundii ATCC 8090
Quick reference for MIC among some compounds
Enter your answer as a number in µg/mL; do not include the unit.

Q. Would you please give the reported MIC of C[C@H](O/N=C(\C(=O)NC1C(=O)N2C(C(=O)[O-])=C(CSc3nc(N)cc(N)[n+]3C)CS[C@H]12)c1csc(N)n1)C(=O)O (stereo partly drawn) with Citrobacter freundii ATCC 8090?
A. 0.016

Q. Would you please give the reported MIC of Cc1c(N)nc(SCC2=C(C(=O)[O-])N3C(=O)C(NC(=O)/C(=N\O[C@@H](C)C(=O)O)c4csc(N)n4)[C@H]3SC2)[n+](N)c1N (stereo partly drawn) with Citrobacter freundii ATCC 8090?
A. 0.016

Q. Would you please give the reported MIC of C[C@H](O/N=C(\C(=O)NC1C(=O)N2C(C(=O)[O-])=C(CSc3nc(N)cc(N)[n+]3N)CS[C@H]12)c1csc(N)n1)C(=O)O (stereo partly drawn) with Citrobacter freundii ATCC 8090?
A. 0.031

###

System: Escherichia coli ATCC 25922
recordedMetric: MIC (µg/mL)
Enter your answer as a number in µg/mL; do not include the unit.

# annotated cases, reported MIC shown
molecule | recordedMetric | unitAbbrev | endpointValue
C[C@@H](O/N=C(\C(=O)NC1C(=O)N2C(C(=O)[O-])=C(CSc3nc(N)cc(N)[n+]3C)CS[C@H]12)c1csc(N)n1)C(=O)O (stereo partly drawn) [I-R-2] | MIC | µg/mL | 0.031
C[C@H](O/N=C(\C(=O)NC1C(=O)N2C(C(=O)[O-])=C(CSc3nc(N)cc(N)[n+]3C)CS[C@H]12)c1csc(N)n1)C(=O)O (stereo partly drawn) [I-S-2] | MIC | µg/mL | 0.016
C[C@H](O/N=C(\C(=O)NC1C(=O)N2C(C(=O)[O-])=C(CSc3nc(N)cc(N)[n+]3-c3ccccc3)CS[C@H]12)c1csc(N)n1)C(=O)O (stereo partly drawn) [I-S-5] | MIC | µg/mL | 0.25
C[C@@H](O/N=C(\C(=O)NC1C(=O)N2C(C(=O)[O-])=C(CSc3nc(N)cc(N)[n+]3-c3ccccc3)CSC12)c1csc(N)n1)C(=O)O (stereo partly drawn) [I-R-5] | MIC | µg/mL | 0.25
Cc1c(N)nc(SCC2=C(C(=O)[O-])N3C(=O)C(NC(=O)/C(=N\O[C@@H](C)C(=O)O)c4csc(N)n4)C3SC2)[n+](C)c1N (stereo partly drawn) [I-S-6] | MIC | µg/mL | 0.031

API: the following record is the query input.
Q. Would you please give the reported MIC of CCC[n+]1c(N)cc(N)nc1SCC1=C(C(=O)[O-])N2C(=O)C(NC(=O)/C(=N\O[C@@H](C)C(=O)O)c3csc(N)n3)[C@H]2SC1 (stereo partly drawn) [I-S-4] with Escherichia coli ATCC 25922?
A. 0.031

###

Assay: in vivo absorbency test (plasma concentration, pharmacokinetic parameters)
Parameters: species or system SD rats (male)
Details: rat, in vivo, iv, 20 mg/kg
Experimental: In addition to the in vitro tests described above, in vivo absorbency tests for the two selected compounds of formulas (I-S-1) and (I-R-1), along with Ceftadizime, were carried out by administering intravenously, in a dose of 20 mg/kg, each of these two compounds into SD rats (male) weighing 220 to 340 g; […], which were analyzed by employing the bio-assay or agar well method. About 10 to 15 rats were used for each of the compounds. Notes: (1) Two-Compartment Model […]
recordedMetric: concentration at 10 min (ng/mL)
Enter your answer as a number in ng/mL; do not include the unit.

Q. Answer with the recorded concentration at 10 min for the compound listed here: CC(C)(O/N=C(\C(=O)N[C@@H]1C(=O)N2C(C(=O)[O-])=C(C[n+]3ccccc3)CS[C@H]12)c1csc(N)n1)C(=O)O [CTZ, Ceftazidime, reference compound]
A. 50000

###

Quick reference for concentration at 5 min among some molecules
Experiment: in vivo absorbency test (plasma concentration, pharmacokinetic parameters)
Set-up: species or system SD rats (male)
Settings: rat, plasma; 5 min; rats, iv, 20 mg/kg; read-out: Plasma Conc.
Enter your answer as a number in µg/mL; do not include the unit.

molecule | unitAbbrev | concentration at 5 min
C[C@H](O/N=C(\C(=O)NC1C(=O)N2C(C(=O)[O-])=C(CSc3nc(N)cc(N)[n+]3N)CS[C@H]12)c1csc(N)n1)C(=O)O (some centres unmarked) | µg/mL | 72.6

Q. Answer with the recorded concentration at 5 min for the molecule listed here: C[C@@H](O/N=C(\C(=O)NC1C(=O)N2C(C(=O)[O-])=C(CSc3nc(N)cc(N)[n+]3N)CS[C@H]12)c1csc(N)n1)C(=O)O (some centres unmarked)
A. 76.9

###

Test: in vivo absorbency test (plasma concentration, pharmacokinetic parameters)
Parameters: species or system SD rats (male)
Details: rat, plasma; 1 min; rats, iv, 20 mg/kg; read-out: Plasma Conc.
recordedMetric: concentration at 1 min (µg/mL)
Enter your answer as a number in µg/mL; do not include the unit.

molecule | concentration at 1 min / µg/mL
C[C@H](O/N=C(\C(=O)NC1C(=O)N2C(C(=O)[O-])=C(CSc3nc(N)cc(N)[n+]3N)CS[C@H]12)c1csc(N)n1)C(=O)O (some centres unmarked) | 147

API: the following record is the query input.
Q. Answer with the recorded concentration at 1 min for the molecule listed here: C[C@@H](O/N=C(\C(=O)NC1C(=O)N2C(C(=O)[O-])=C(CSc3nc(N)cc(N)[n+]3N)CS[C@H]12)c1csc(N)n1)C(=O)O (some centres unmarked)
A. 170

###

Quick record of MIC values for Staphylococcus epidermidis ATCC 10537.
Note: a bare number is incomplete; add the unit.

# annotated cases, reported MIC shown
molecule | MIC
CCC[n+]1c(N)cc(N)nc1SCC1=C(C(=O)[O-])N2C(=O)C(NC(=O)/C(=N\O[C@H](C)C(=O)O)c3csc(N)n3)[C@H]2SC1 (stereo partly drawn) [I-R-4] | 2 µg/mL
C[C@@H](O/N=C(\C(=O)NC1C(=O)N2C(C(=O)[O-])=C(CSc3nc(N)cc(N)[n+]3N)CS[C@H]12)c1csc(N)n1)C(=O)O (stereo partly drawn) [I-R-1] | 4 µg/mL
Cc1c(N)nc(SCC2=C(C(=O)[O-])N3C(=O)C(NC(=O)/C(=N\O[C@@H](C)C(=O)O)c4csc(N)n4)[C@H]3SC2)[n+](N)c1N (stereo partly drawn) [I-S-7] | 2 µg/mL

Q. Answer with the recorded MIC for the molecule listed here: C[C@H](O/N=C(\C(=O)NC1C(=O)N2C(C(=O)[O-])=C(CSc3nc(N)cc(N)[n+]3-c3ccccc3)CS[C@H]12)c1csc(N)n1)C(=O)O (stereo partly drawn) [I-S-5]
A. 4 µg/mL

Q. Answer with the recorded MIC for the molecule listed here: C[C@H](O/N=C(\C(=O)NC1C(=O)N2C(C(=O)[O-])=C(CSc3nc(N)cc(N)[n+]3C)CS[C@H]12)c1csc(N)n1)C(=O)O (stereo partly drawn) [I-S-2]
A. 1 µg/mL

Q. Answer with the recorded MIC for the molecule listed here: Cc1c(N)nc(SCC2=C(C(=O)[O-])N3C(=O)C(NC(=O)/C(=N\O[C@H](C)C(=O)O)c4csc(N)n4)[C@H]3SC2)[n+](C)c1N (stereo partly drawn) [I-R-6]
A. 2 µg/mL

Q. Answer with the recorded MIC for the molecule listed here: C[C@@H](O/N=C(\C(=O)NC1C(=O)N2C(C(=O)[O-])=C(CSc3nc(N)cc(N)[n+]3-c3ccccc3)CSC12)c1csc(N)n1)C(=O)O (stereo partly drawn) [I-R-5]
A. 2 µg/mL

Q. Answer with the recorded MIC for the molecule listed here: Cc1c(N)nc(SCC2=C(C(=O)[O-])N3C(=O)C(NC(=O)/C(=N\O[C@@H](C)C(=O)O)c4csc(N)n4)C3SC2)[n+](C)c1N (stereo partly drawn) [I-S-6]
A. 2 µg/mL

Q. Answer with the recorded MIC for the molecule listed here: CC(C)(O/N=C(\C(=O)N[C@@H]1C(=O)N2C(C(=O)[O-])=C(C[n+]3ccccc3)CS[C@H]12)c1csc(N)n1)C(=O)O [CTZ, Ceftazidime, reference compound]
A. 8 µg/mL
